target: Peroxisome proliferator-activated receptor alpha (Homo sapiens); test: Displacement of Fluormone-Pan-PPAR Green from human GST-tagged PPARalpha LBD at 20 uM by TR-FRET assay relative to control
measured endpoint: inhibition (%)
One number for each entry, in %.

CNC(=O)[C@H]1S[C@@H](n2cnc3c(NCc4cccc(I)c4)nc(Cl)nc32)[C@H](O)[C@@H]1O : 37.8

Could I get inhibition for every one of these entries?
1. O[C@@H]1[C@H](O)CS[C@H]1n1cnc2c(NCc3ccccc3Cl)nc(Cl)nc21
2. CCNC(=O)[C@H]1S[C@@H](n2cnc3c(NCc4cccc(I)c4)ncnc32)[C@H](O)[C@@H]1O
3. O=C(NC1CC1)[C@H]1S[C@@H](n2cnc3c(NCc4cccc(I)c4)ncnc32)[C@H](O)[C@@H]1O
4. O=C(NC1CCC1)[C@H]1S[C@@H](n2cnc3c(NCc4cccc(I)c4)ncnc32)[C@H](O)[C@@H]1O
5. CNC(=O)[C@H]1O[C@@H](n2cnc3c(NCc4cccc(I)c4)nc(Cl)nc32)[C@H](O)[C@@H]1O [NAMODENOSON]
6. CNC(=O)[C@H]1O[C@@H](n2cnc3c(NCc4cccc(I)c4)ncnc32)[C@H](O)[C@@H]1O [IB-MECA]

Result ::
1: 19.2; 2: 29.3; 3: 37.6; 4: 11.7; 5: 46.5; 6: 16

List the reported inhibition of each compound below.
1. O[C@@H]1[C@H](O)CS[C@H]1n1cnc2c(NCc3cccc(Cl)c3)nc(Cl)nc21
2. O=C(NCC1CC1)[C@H]1S[C@@H](n2cnc3c(NCc4cccc(I)c4)ncnc32)[C@H](O)[C@@H]1O
3. CNC(=O)[C@H]1S[C@@H](n2cnc3c(NCc4cccc(I)c4)ncnc32)[C@H](O)[C@@H]1O

Result ::
1. 4.5
2. 16.4
3. 13.5

* * *

What Activity was measured for each of the following?
assay: Induction of adipogenesis in human bone marrow-derived mesenchymal stem cells assessed as adiponectin level at 20 uM measured on day 7 after 48 hrs by ELISA; type: functional, Mesenchymal stem cell
Numbers only, in pg/mL.

Some solved entries appear below for comparison.
O=C(NC1CCC1)[C@H]1S[C@@H](n2cnc3c(NCc4cccc(I)c4)ncnc32)[C@H](O)[C@@H]1O : 633
O[C@@H]1[C@H](O)CS[C@H]1n1cnc2c(NCc3cccc(I)c3)nc(Cl)nc21 : 857
O=C(NCC1CC1)[C@H]1S[C@@H](n2cnc3c(NCc4cccc(I)c4)ncnc32)[C@H](O)[C@@H]1O : 490
CNC(=O)[C@H]1S[C@@H](n2cnc3c(NCc4cccc(I)c4)nc(Cl)nc32)[C@H](O)[C@@H]1O : 738
CCNC(=O)[C@H]1S[C@@H](n2cnc3c(NCc4cccc(I)c4)ncnc32)[C@H](O)[C@@H]1O : 242
COc1ccc(Cl)cc1C(=O)NCCc1ccc(S(=O)(=O)NC(=O)NC2CCCCC2)cc1 [GLYBURIDE] : 1000

Give one value of Activity per listed compound.
1. O=C(NC1CC1)[C@H]1S[C@@H](n2cnc3c(NCc4cccc(I)c4)ncnc32)[C@H](O)[C@@H]1O
2. C[C@@H]1C[C@H]2[C@@H]3CCC4=CC(=O)C=C[C@]4(C)[C@@]3(F)[C@@H](O)C[C@]2(C)[C@@]1(O)C(=O)CO

Result ::
249
100

For every item below, please supply its Activity.
1. CNC(=O)[C@H]1O[C@@H](n2cnc3c(NCc4cccc(I)c4)ncnc32)[C@H](O)[C@@H]1O
2. CNC(=O)[C@H]1S[C@@H](n2cnc3c(NCc4cccc(I)c4)ncnc32)[C@H](O)[C@@H]1O
3. O[C@@H]1[C@H](O)CS[C@H]1n1cnc2c(NCc3ccccc3Cl)nc(Cl)nc21
4. CC(C)Cn1c(=O)n(C)c(=O)c2nc[nH]c21
5. CNC(=O)[C@H]1O[C@@H](n2cnc3c(NCc4cccc(I)c4)nc(Cl)nc32)[C@H](O)[C@@H]1O
6. O[C@@H]1[C@H](O)CS[C@H]1n1cnc2c(NCc3cccc(Cl)c3)nc(Cl)nc21

Result ::
1. 216
2. 343
3. 268
4. 100
5. 603
6. 442
